Tested on: SK-MEL-28 melanoma
Test: NCI-60 one-dose screen, 48 h (100 = growth as untreated, 0 = no growth, -100 = all killed)
Details: 10 µM unless noted
Compounds without any hit were thinned out: in the full panel of roughly 83,000, 20% have a hit.
Could you please report measured growth for the items listed next?
The reply should be a number in %, with the unit left off.

Noted growth for C=C(OC(C)=O)c1ccccc1 , tested on SK-MEL-28 melanoma: 118

Test item CCOC(=O)c1cc(C)[nH]c(=O)c1C#N ; SK-MEL-28 melanoma; reported growth was 112

GET /values?item= CC(=O)c1cccs1 &system= SK-MEL-28 melanoma returns growth: 98.1

Field growth (SK-MEL-28 melanoma), entry Cc1cccnc1NC1OC(=O)c2ccccc21 (configuration not stated) : 112

Readout growth for O=C1Nc2ccccc2/C1=C\c1ccccc1O , test system SK-MEL-28 melanoma, was 97

# growth measured on SK-MEL-28 melanoma for item ClCC(Cl)C1CCC(Cl)C(Cl)C1 (configuration not stated) = 103

Form field growth for item Oc1cc(O)c2c(c1)O[C@H](c1ccc(O)c(O)c1)[C@@H](O)C2 on SK-MEL-28 melanoma: 110
